Just for reference, ChEMBL document CHEMBL1145804 is where these values come from.

# measured_target: 5-hydroxytryptamine receptor 4 (Homo sapiens, UniProt Q13639)
# Sequence (Q13639 whole entry): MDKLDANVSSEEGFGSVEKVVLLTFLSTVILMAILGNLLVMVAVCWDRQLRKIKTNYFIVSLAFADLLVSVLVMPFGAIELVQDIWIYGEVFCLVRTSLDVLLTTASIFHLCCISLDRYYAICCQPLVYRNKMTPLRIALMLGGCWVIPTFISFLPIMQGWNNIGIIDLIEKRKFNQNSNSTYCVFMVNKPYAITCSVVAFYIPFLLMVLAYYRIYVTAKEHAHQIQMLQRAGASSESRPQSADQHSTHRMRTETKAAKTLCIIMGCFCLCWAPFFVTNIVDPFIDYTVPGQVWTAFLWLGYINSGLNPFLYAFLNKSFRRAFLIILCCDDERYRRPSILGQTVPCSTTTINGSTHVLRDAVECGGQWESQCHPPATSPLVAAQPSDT
experimental_endpoint: Ki (nM)
Give bare numbers, in nM.

// worked examples, Ki included
chem_smiles: COc1cc(N)c(Cl)cc1C(=O)OCCN1CCN(C(=O)CCCNS(=O)(=O)c2cccc3c(N(C)C)cccc23)CC1
Ki [nM]: 183
--
chem_smiles: COc1cc(N)c(Cl)cc1C(=O)OCCN1CCC(CN2C(=O)c3cccc4c(N)ccc(c34)C2=O)CC1
Ki [nM]: 64
--
chem_smiles: COc1cc(N)c(Cl)cc1C(=O)OCCN1CCN(C(=O)CCNS(=O)(=O)c2cccc3c(N(C)C)cccc23)CC1
Ki [nM]: 116

Record Ki for all entries; do not skip any.
1. COc1cc(N)c(Cl)cc1C(=O)OCCN1CCN(C(=O)CNS(=O)(=O)c2cccc3c(N(C)C)cccc23)CC1
2. COc1cc(N)c(Cl)cc1C(=O)OCCN1CCC(CCCCNS(=O)(=O)c2cccc3c(N(C)C)cccc23)CC1
3. COc1cc(N)c(Cl)cc1C(=O)OCCN1CCC(NS(=O)(=O)c2cccc3c(N(C)C)cccc23)CC1
4. COc1cc(N)c(Cl)cc1C(=O)OCCN1CCC(CNS(=O)(=O)c2cccc3c(N(C)C)cccc23)CC1
5. COc1cc(N)c(Cl)cc1C(=O)OCCN1CCN(C(=O)CCCCCCCNS(=O)(=O)c2cccc3c(N(C)C)cccc23)CC1

[1720, 24, 264, 7, 31]
